- System: OVCAR-5 ovarian
- test.details: NCI-60 one-dose screen, 48 h (100 = growth as untreated, 0 = no growth, -100 = all killed)
- measurement.context: 10 µM unless noted
Compounds without any hit were thinned out: in the full panel of roughly 83,000, 20% have a hit.
# growth >= 90% gives Condition met, anything below gives Condition not met

molecule=O=C(Nc1ncc(Cc2ccc(Cl)cc2)s1)C1=NCCCCN1 class="Condition met"

QUERY: Check this molecule for growth at or above 90%: "CC1=NN(c2cccc(Cl)c2)C(=O)/C1=C\C=C\c1ccccc1"
RESULT: Condition met

QUERY: Check this molecule for growth at or above 90%: CCN1C(=O)N(CC)C2C1NN=c1s/c(=C3\C(=O)N(C)c4ccccc43)c(=O)n12 (stereo not given)
RESULT: Condition not met

QUERY: Check this molecule for growth at or above 90%: C#CCOC(=O)C(N)CSSCC(N)C(=O)O (stereo not given)
RESULT: Condition not met

QUERY: Check this molecule for growth at or above 90%: "Cc1cccc(C)c1NC(=O)Nc1ccccc1"
RESULT: Condition not met

QUERY: Check this molecule for growth at or above 90%: Nc1nc(N)c2c(n1)NC(c1cccc(Nc3ccnc4cc(C(F)(F)F)ccc34)c1)CC(c1ccc(Cl)cc1)=N2 (stereo not given)
RESULT: Condition met

QUERY: Check this molecule for growth at or above 90%: "Cn1nc(-c2ccc(Cl)cc2)nc2c(=O)n(C)c(=O)nc1-2"
RESULT: Condition not met

QUERY: Check this molecule for growth at or above 90%: "Oc1c(Cl)cc(Cl)c2ccc(CN3CCNCC3)nc12"
RESULT: Condition not met

QUERY: Check this molecule for growth at or above 90%: "O=C1Nc2ccccc2/C1=C/c1cccn1CCCCCCn1c2ccccc2c(=O)c2ccccc21"
RESULT: Condition not met

* * *

- Tested on: HOP-62 NSCLC
- test.details: NCI-60 one-dose screen, 48 h (100 = growth as untreated, 0 = no growth, -100 = all killed)
- measurement.context: 10 µM unless noted
About 83,000 compounds went through this panel and 20% of them were active in at least one assay; those are over-represented in the sample as a whole.
# growth >= 30% gives satisfied, anything below gives not satisfied

The following molecules have reported results that may help.
molecule=COc1ccc(N2C(=O)/C(=C/C(Cl)=C/c3ccc([N+](=O)[O-])cc3)SC2=S)cc1 class="not satisfied"
molecule=COc1ccc(N/N=C/c2ccc3c(c2)Sc2ccccc2N3C)cc1 class=satisfied
molecule=O=C1c2c(c3c4cc(F)ccc4oc3c3[nH]c4ccccc4c23)C(=O)N1O class="not satisfied"
molecule="CCCCC#Cc1c(I)n(C2OC(CO[Si](C)(C)C(C)(C)C)C3OC(C)(C)OC32)c(=O)[nH]c1=O (stereo unspecified)" class=satisfied

Lab note: next molecule to report on.
QUERY: Check this molecule for growth at or above 30%: "Cc1c(N2CCCCC2)[nH]c2ccccc12"
RESULT: satisfied

* * *

- Test system: BT-549 breast
- test.details: NCI-60 one-dose screen, 48 h (100 = growth as untreated, 0 = no growth, -100 = all killed)
- measurement.context: 10 µM unless noted
The panel holds about 83,000 compounds, 20% with a hit somewhere; the sample as a whole holds those more often.
quantity: growth (%)
Reply with just the number (in %).

These solved cases illustrate the format of a correct answer.
compound=CCCCCCCCNc1ncnc2c1ncn2Cc1nnc2c3ccccc3c(Cl)nn12 system_tested="BT-549 breast" recorded_value=28
compound="CCOC(=O)C1=CCC(n2cc(F)c(=O)[nH]c2=O)O1 (stereo not drawn)" system_tested="BT-549 breast" recorded_value=107
compound=COc1cc(/C=C2\C(=O)N(CCOc3cc(O)c4c(=O)cc(-c5ccccc5)oc4c3)c3ccccc32)cc(OC)c1O system_tested="BT-549 breast" recorded_value=51
compound=CN(C)C(=S)NN=C(c1ccccn1)c1ccccn1 system_tested="BT-549 breast" recorded_value=17
compound=CC(C)(C)CC(C)(C)Nc1c(-c2c(O)c3ccccc3oc2=O)nc2sccn12 system_tested="BT-549 breast" recorded_value=111
compound=CN1CCN(Cc2ccc(NC(=O)c3cncc(C#Cc4c(N)ncc5c(F)cccc45)c3)cc2C(F)(F)F)CC1 system_tested="BT-549 breast" recorded_value=12.5
compound=COc1ccc(-n2c(=O)n(-c3ccc(-c4nc5ccc(F)cc5s4)cc3)c(=O)c3cccnc32)cc1 system_tested="BT-549 breast" recorded_value=99.7

QUERY: State its growth for this compound: COC(CCP(=O)(c1ccccc1)c1ccccc1)(C(=O)c1ccccc1)c1ccccc1 (stereo not drawn)
RESULT: 60.4

* * *

- System: K-562 leukemia
- test.details: NCI-60 one-dose screen, 48 h
- measurement.context: 10 µM unless noted
This is part of a sample that, as a whole, favours compounds with a hit. Of some 83,000 tested, about 20% had one in any assay. Active and inactive are the calls of the source. The calls were made as follows: active = growth percent below 10; inactive = the rest.
Please reply with one of these outcomes: active, inactive

The following compounds have reported results that may help.
compound=C=C(C)[C@@H]1CC[C@]2(COCCCNCCCN)CC[C@]3(C)[C@H](CC[C@@H]4[C@@]5(C)CC[C@H](OCCCN)C(C)(C)[C@@H]5CC[C@]43C)[C@@H]12 system_tested="K-562 leukemia" class=active
compound=Cc1c(C(=O)C(SC(=S)N2CCOCC2)SC(=S)N2CCOCC2)nnn1-c1ccc([N+](=O)[O-])cc1 system_tested="K-562 leukemia" class=inactive
compound="CSc1nc(N)c2c(n1)NC(c1ccccc1)C1CCc3ccccc3C1=N2 (stereo not drawn)" system_tested="K-562 leukemia" class=inactive
compound=Cc1cc(C(=O)Nc2cc(Nc3ncccc3-c3ncnc4nc[nH]c34)ccc2F)cc(C(C)(C)C#N)c1 system_tested="K-562 leukemia" class=active
compound=O=S(=O)(c1ccc(NCSc2nc3ccccc3s2)cc1)c1ccc(NCSc2nc3ccccc3s2)cc1 system_tested="K-562 leukemia" class=inactive
compound="COC(=O)c1nc(-c2ccccc2)oc1S(=O)(=O)NCC(c1ccc(Cl)cc1)N1CCCCC1 (stereo not drawn)" system_tested="K-562 leukemia" class=active

QUERY: Hi team, can someone confirm the assay call for CCOC(=O)CC1CSC(N/N=C/c2ccc(O)cc2)=N1 (stereo not drawn) ?
RESULT: inactive

QUERY: Hi team, can someone confirm the assay call for "COc1ccc(Nc2nc(Nc3cc(C)[nH]n3)c3cc(OC)c(OC)cc3n2)cc1" ?
RESULT: active

QUERY: Hi team, can someone confirm the assay call for "Cc1ccc(C(=O)Nc2ccc(CN3CCN(C)CC3)c(C(F)(F)F)c2)cc1C#Cc1cnc(N)c2ccccc12" ?
RESULT: active

QUERY: Hi team, can someone confirm the assay call for "C=C1/C(=C\C=C2/CCC[C@]3(C)[C@@H]([C@H](C)CCCC(C)(C)O)CC[C@@H]23)C[C@@H](OC(=O)CBr)C[C@@H]1O" ?
RESULT: inactive

QUERY: Hi team, can someone confirm the assay call for CCN1C(=O)N(CC)C2C1NC(=S)N2/N=C/C=C/c1cccs1 (stereo not drawn) ?
RESULT: inactive

QUERY: Hi team, can someone confirm the assay call for "O=c1cc(-c2nccc3c2[nH]c2ccccc23)c2cc(Cl)ccc2o1" ?
RESULT: inactive

QUERY: Hi team, can someone confirm the assay call for "CC(=O)[C@H]1CC[C@]2(C)[C@@H]1CC[C@@H]1[C@@]3(C)C/C(=C/c4cccnc4)C(=O)C(C)(C)[C@@H]3CC[C@]12C" ?
RESULT: inactive

QUERY: Hi team, can someone confirm the assay call for "C#CCOc1cccc(Nc2c(Cl)c(CCl)nc3ccc(Oc4ccccc4)cc23)c1" ?
RESULT: inactive

QUERY: Hi team, can someone confirm the assay call for "[2H]C([2H])([2H])Oc1c(F)cccc1/C=C/C(=O)/C=C(O)/C=C/c1cccc(F)c1OC([2H])([2H])[2H]" ?
RESULT: inactive

QUERY: Hi team, can someone confirm the assay call for "COc1cccc(NC(=O)c2sc3nc(C)c(C(=O)c4ccccc4)cc3c2N)c1" ?
RESULT: inactive

QUERY: Hi team, can someone confirm the assay call for "CC(=O)Cc1nsc(NC(=O)c2cc(-c3cc(Cl)ccc3Cl)oc2C)n1" ?
RESULT: inactive

QUERY: Hi team, can someone confirm the assay call for CN1CC(c2ccccc2)C(C(=O)c2ccc(Br)cc2)C12C(=O)Nc1ccccc12 (stereo not drawn) ?
RESULT: inactive

* * *

- Test system: TK-10 renal
- test.details: NCI-60 one-dose screen, 48 h (100 = growth as untreated, 0 = no growth, -100 = all killed)
- measurement.context: 10 µM unless noted
Compounds without any hit were thinned out: in the full panel of roughly 83,000, 20% have a hit. Activity calls are given as the source filed them. The calls were made as follows: active = growth percent below 10; inactive = the rest.
quantity: growth

compound=COc1ccc(Nc2nc(Nc3cc(C)[nH]n3)c3cc(OC)c(OC)cc3n2)cc1 system_tested="TK-10 renal" quantity=growth recorded_value="-86.6% [20 µM] (active)"
compound=COc1ccc(/C=C2/CCc3cc4ccc(OC)cc4[o+]c32)c(O)c1 system_tested="TK-10 renal" quantity=growth recorded_value="135% (inactive)"
compound=C(CCCSC1=NCCN1)CCSC1=NCCN1 system_tested="TK-10 renal" quantity=growth recorded_value="122% (inactive)"

QUERY: State its growth for this compound: CCN1C(=O)N(CC)C2C1NC(=S)N2/N=C/C=C/c1ccccc1 (stereo not given)
RESULT: 49.6% (inactive)

QUERY: State its growth for this compound: "CC(=O)CC(=O)c1ccccc1.[Cu+2]"
RESULT: 103% (inactive)

QUERY: State its growth for this compound: "CC1(C)CCC[C@]23C(=O)O[C@](O)(C(=O)C4=C[C@@](C)(/C=C/CCCc5ccc6ccc7cccc8ccc5c6c78)CC[C@@]42O)[C@@H]13"
RESULT: -88.7% (active)

QUERY: State its growth for this compound: "CC/C(=C(/c1ccc(Cl)cc1)c1ccc(OCCN2CCCC2)cc1)c1ccccc1"
RESULT: 93.5% (inactive)

QUERY: State its growth for this compound: "N=C(N)c1ccc(-c2ccc(-c3ccccc3)s2)nc1"
RESULT: 106% (inactive)

QUERY: State its growth for this compound: "C=C1C(=O)O[C@H]2[C@H]1CC/C(COC(=O)NCc1ccc(Cn3c(=O)sn(CCCC)c3=O)cc1)=C\CC[C@@]1(C)O[C@@H]21"
RESULT: 14.7% (inactive)

QUERY: State its growth for this compound: "O=C(N/N=C/c1ccccc1Cl)c1ccccc1Nc1ccnc(C(F)(F)F)c1"
RESULT: 16.1% (inactive)
